Target: NEK11(h) (Homo sapiens, UniProt Q8NG66)
Sequence (Q8NG66 1-645): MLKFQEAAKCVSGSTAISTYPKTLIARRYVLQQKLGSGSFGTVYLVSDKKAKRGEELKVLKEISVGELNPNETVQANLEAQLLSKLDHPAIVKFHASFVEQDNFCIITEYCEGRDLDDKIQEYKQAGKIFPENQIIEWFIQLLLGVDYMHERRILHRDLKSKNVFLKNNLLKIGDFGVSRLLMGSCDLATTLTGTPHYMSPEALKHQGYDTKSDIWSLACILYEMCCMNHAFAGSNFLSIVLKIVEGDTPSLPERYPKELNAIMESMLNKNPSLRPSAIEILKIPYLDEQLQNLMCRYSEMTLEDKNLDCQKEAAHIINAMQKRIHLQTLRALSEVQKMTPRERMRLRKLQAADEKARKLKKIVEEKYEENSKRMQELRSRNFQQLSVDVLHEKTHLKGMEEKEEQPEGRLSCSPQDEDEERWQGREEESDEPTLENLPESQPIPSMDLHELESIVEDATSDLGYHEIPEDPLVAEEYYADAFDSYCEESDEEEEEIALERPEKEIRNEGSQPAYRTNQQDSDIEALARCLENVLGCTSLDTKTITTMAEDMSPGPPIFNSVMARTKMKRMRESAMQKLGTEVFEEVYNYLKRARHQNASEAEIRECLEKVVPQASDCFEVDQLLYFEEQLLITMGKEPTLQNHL
Test: Kinase Profiling Assay
Format: biochemical
Conditions: 100 μM
QUANTITY_MEASURED: % activity

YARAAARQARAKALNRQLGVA [MMI-0200] ... 95%
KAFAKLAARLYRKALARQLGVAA [MMI-0400] ... 33%
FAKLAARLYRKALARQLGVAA [MMI-0300] ... 53%
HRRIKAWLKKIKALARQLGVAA [MMI-0500] ... 2%

----------
This listing pairs sequences with measured % activity.
Target: Met(M1268T)(h) (Homo sapiens, UniProt P08581, M1250T)
Test: Kinase Profiling Assay
Type: biochemical
Conditions: 100 μM
QUANTITY_MEASURED: % activity

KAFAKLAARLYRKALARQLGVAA [MMI-0400] ... 265%
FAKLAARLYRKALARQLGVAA [MMI-0300] ... 255%
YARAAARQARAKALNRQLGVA [MMI-0200] ... 143%
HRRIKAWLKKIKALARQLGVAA [MMI-0500] ... 239%

----------
This listing pairs sequences with measured % activity.
Biological target: Txk(h) (Homo sapiens, UniProt P42681)
Sequence (P42681 1-527): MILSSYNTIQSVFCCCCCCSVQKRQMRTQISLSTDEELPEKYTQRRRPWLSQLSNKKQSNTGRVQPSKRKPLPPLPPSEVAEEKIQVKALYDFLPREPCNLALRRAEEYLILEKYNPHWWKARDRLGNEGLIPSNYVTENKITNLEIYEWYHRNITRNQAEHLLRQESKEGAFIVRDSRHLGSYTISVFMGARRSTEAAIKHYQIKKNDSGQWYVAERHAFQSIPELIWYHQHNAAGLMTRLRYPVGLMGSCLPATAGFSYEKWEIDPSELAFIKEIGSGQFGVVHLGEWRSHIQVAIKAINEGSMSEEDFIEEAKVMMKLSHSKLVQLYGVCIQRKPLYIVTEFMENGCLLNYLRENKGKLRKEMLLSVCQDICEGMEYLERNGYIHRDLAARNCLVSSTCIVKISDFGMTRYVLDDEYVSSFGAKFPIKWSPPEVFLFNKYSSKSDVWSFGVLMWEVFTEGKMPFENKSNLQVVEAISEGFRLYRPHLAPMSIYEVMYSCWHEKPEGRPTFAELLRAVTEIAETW
Assay: Kinase Profiling Assay
Type: biochemical
Details: 100 μM
QUANTITY_MEASURED: % activity

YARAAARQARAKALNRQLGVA [MMI-0200] ... 98%
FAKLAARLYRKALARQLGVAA [MMI-0300] ... 48%
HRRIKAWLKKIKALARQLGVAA [MMI-0500] ... 10%
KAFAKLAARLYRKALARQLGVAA [MMI-0400] ... 37%

----------
Target: DCAMKL2(h) (Homo sapiens)
Sequence (Q8N568 1-766): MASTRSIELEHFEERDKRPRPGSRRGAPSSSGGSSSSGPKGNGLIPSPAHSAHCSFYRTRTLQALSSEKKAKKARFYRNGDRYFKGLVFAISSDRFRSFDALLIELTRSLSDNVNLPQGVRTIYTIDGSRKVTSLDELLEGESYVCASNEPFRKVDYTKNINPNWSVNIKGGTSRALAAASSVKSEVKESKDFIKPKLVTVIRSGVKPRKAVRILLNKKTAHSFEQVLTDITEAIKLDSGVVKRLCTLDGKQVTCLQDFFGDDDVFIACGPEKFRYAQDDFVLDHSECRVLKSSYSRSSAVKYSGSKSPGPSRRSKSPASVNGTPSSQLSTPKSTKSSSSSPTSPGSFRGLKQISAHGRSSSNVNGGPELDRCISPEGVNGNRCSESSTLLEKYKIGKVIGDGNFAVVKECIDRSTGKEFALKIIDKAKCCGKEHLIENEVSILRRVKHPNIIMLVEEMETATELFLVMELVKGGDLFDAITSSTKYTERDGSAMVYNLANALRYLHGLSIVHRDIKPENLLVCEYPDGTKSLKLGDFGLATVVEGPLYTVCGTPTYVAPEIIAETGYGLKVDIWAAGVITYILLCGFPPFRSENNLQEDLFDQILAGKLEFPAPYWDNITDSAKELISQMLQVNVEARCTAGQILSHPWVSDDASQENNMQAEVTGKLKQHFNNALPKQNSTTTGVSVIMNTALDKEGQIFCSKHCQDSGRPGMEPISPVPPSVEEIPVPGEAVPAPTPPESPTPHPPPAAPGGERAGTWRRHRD
Assay: Kinase Profiling Assay
Assay type: biochemical
Details: 100 μM
This listing pairs sequences with measured % activity.
QUANTITY_MEASURED: % activity (%)

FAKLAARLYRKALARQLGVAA [MMI-0300] ... 81
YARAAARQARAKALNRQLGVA [MMI-0200] ... 131
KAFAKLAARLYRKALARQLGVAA [MMI-0400] ... 70
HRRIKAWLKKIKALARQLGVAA [MMI-0500] ... 56

----------
This listing pairs sequences with measured % activity.
Target: DAPK2(h) (Homo sapiens, UniProt Q9UIK4)
Sequence (Q9UIK4 whole entry): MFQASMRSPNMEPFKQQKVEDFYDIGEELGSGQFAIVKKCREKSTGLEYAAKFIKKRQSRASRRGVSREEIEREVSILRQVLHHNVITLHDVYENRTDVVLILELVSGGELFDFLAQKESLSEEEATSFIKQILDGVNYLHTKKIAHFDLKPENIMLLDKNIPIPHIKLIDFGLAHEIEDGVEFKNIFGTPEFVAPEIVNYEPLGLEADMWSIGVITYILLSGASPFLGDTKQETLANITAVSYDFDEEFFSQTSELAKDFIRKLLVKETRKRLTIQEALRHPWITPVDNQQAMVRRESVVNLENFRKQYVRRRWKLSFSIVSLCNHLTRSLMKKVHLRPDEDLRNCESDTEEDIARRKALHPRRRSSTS
Assay: Kinase Profiling Assay
Assay type: biochemical
Details: 100 μM
QUANTITY_MEASURED: % activity (%)

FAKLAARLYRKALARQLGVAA [MMI-0300] ... 32
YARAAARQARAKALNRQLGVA [MMI-0200] ... 92
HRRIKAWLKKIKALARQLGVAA [MMI-0500] ... 3
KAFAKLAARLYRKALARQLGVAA [MMI-0400] ... 16

----------
This listing pairs sequences with measured % activity.
Target: PKCα(h) (Homo sapiens, UniProt P17252)
Assay: Kinase Profiling Assay
Assay type: biochemical
Conditions: 100 μM
QUANTITY_MEASURED: % activity (%)

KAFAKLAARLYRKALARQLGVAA [MMI-0400] ... 86
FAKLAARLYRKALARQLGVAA [MMI-0300] ... 89
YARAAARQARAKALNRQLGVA [MMI-0200] ... 100
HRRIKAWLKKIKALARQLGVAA [MMI-0500] ... 3

----------
This listing pairs sequences with measured % activity.
Target: IRR(h) (Homo sapiens)
Sequence (P14616 27-1297): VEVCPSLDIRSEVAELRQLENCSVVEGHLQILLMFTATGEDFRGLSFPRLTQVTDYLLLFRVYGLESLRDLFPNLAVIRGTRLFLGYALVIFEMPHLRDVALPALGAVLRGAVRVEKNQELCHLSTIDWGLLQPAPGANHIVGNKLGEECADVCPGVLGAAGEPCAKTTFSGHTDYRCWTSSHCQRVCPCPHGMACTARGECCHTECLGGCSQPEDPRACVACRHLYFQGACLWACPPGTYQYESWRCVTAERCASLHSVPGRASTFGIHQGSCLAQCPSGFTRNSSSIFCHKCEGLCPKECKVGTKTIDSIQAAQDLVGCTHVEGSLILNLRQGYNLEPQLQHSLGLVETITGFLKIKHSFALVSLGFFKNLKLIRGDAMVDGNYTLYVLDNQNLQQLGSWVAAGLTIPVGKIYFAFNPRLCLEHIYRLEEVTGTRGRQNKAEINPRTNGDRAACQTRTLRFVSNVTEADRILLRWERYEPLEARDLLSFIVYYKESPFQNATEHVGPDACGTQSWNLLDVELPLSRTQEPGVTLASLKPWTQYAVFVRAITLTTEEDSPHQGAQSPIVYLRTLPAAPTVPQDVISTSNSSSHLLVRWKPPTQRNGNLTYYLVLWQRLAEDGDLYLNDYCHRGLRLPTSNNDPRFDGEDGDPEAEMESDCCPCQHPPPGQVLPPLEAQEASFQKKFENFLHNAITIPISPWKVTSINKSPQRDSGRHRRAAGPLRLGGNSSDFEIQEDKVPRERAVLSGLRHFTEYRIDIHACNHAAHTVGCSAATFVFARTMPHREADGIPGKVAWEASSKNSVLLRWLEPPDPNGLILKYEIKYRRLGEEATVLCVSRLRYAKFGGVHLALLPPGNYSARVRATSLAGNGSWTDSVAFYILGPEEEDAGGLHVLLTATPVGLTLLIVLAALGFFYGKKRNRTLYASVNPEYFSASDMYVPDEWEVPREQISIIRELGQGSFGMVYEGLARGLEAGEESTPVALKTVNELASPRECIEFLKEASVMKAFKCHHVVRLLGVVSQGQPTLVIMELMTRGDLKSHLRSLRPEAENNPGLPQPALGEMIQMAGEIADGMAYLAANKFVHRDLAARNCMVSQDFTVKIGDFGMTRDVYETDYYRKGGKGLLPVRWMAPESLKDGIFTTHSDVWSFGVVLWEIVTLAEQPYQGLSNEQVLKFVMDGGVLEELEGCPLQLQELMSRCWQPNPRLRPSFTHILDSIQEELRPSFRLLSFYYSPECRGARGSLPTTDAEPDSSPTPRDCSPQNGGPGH
Assay: Kinase Profiling Assay
Type: biochemical
Details: 100 μM
QUANTITY_MEASURED: % activity (%)

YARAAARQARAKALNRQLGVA [MMI-0200] ... 69
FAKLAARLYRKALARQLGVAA [MMI-0300] ... 8
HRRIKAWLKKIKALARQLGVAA [MMI-0500] ... 10
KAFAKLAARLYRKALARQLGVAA [MMI-0400] ... 8

----------
Molecular target: WNK3(h) (Homo sapiens)
Sequence (Q9BYP7 whole entry): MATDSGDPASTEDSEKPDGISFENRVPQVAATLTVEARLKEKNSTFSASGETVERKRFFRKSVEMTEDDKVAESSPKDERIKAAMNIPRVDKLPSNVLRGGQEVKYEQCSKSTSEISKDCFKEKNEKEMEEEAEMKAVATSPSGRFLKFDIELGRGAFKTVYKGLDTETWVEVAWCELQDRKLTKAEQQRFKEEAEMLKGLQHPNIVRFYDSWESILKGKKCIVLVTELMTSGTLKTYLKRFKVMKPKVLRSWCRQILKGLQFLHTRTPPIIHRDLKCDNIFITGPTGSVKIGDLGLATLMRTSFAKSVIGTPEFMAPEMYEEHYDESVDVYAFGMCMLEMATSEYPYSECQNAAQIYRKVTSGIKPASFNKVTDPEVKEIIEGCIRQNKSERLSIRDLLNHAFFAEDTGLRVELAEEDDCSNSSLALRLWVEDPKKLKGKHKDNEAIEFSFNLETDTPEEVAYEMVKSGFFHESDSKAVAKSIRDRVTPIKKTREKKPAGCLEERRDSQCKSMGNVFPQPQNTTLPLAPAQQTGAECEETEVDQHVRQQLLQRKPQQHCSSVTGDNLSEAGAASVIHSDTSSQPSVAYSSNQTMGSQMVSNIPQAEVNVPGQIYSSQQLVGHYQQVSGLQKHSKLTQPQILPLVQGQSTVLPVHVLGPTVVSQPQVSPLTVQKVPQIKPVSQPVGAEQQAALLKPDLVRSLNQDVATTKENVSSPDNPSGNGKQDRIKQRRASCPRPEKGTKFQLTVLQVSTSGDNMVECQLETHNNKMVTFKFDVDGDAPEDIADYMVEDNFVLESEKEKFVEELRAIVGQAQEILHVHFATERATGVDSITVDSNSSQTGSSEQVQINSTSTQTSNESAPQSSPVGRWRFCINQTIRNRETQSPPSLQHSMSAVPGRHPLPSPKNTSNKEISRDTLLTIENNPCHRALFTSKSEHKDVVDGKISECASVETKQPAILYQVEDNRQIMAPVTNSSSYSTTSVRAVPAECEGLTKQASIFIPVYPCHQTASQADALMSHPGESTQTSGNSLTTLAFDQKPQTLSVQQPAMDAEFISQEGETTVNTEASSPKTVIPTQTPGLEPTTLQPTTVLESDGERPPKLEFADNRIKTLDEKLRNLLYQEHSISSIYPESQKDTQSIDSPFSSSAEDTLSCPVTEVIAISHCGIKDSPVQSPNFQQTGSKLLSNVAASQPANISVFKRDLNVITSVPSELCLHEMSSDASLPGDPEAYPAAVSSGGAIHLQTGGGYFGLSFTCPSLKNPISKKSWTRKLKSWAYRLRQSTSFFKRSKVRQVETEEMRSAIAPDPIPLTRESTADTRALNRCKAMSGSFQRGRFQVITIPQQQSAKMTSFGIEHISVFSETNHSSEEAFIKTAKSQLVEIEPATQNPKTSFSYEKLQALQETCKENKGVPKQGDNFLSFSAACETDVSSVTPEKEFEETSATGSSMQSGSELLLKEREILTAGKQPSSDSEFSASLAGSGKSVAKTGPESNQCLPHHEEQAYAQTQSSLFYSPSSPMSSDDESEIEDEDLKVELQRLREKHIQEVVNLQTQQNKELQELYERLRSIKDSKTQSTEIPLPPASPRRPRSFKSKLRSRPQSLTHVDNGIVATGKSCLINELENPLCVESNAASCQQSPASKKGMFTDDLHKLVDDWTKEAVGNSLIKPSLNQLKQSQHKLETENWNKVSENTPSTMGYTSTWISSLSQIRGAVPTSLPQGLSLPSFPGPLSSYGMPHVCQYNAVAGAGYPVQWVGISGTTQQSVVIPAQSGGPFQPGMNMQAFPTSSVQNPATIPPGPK
Assay: Kinase Profiling Assay
Assay type: biochemical
Settings: 100 μM
QUANTITY_MEASURED: % activity (%)

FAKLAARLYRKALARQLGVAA [MMI-0300] ... 77
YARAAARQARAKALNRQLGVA [MMI-0200] ... 97
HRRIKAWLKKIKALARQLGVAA [MMI-0500] ... 9
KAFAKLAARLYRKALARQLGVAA [MMI-0400] ... 74

----------
Biological target: CDK5/p25(h) (Homo sapiens, UniProt Q00535)
Sequence (Q00535 whole entry): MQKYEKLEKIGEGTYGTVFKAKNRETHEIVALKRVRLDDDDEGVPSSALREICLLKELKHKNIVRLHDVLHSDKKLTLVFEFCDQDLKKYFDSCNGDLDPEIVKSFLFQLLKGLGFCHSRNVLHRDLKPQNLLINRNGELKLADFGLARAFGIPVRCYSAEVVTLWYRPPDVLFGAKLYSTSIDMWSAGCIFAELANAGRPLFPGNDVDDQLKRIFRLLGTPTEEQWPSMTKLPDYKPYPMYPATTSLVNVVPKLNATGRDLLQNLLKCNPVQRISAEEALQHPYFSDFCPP
Sequence (Q15078 99-307 partner limits assumed): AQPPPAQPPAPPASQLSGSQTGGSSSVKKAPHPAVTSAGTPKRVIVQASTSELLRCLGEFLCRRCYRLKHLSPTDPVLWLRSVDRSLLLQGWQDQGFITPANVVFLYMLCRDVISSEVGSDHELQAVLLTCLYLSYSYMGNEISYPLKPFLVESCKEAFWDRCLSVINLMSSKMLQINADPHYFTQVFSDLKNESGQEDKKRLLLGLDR
Assay: Kinase Profiling Assay
Type: biochemical
Details: 100 μM
This listing pairs sequences with measured % activity.
QUANTITY_MEASURED: % activity (%)

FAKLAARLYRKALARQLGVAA [MMI-0300] ... 89
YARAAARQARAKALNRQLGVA [MMI-0200] ... 97
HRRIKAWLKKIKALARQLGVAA [MMI-0500] ... 66
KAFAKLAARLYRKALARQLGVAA [MMI-0400] ... 92

Reference source: patent US20190134153A1
